- System: U-251
- assay.explanation: Antiproliferative activity against human U251 cells by sulforhodamine B assay relative to control
- Format: functional
As shown below, each of these compounds has a reported GI50 value.
assay.endpoint: GI50

> print(dat)
                                 cpd.smiles  assay.endpoint    result
1  CCCCCCCCCCCC[C@@H](O)[C@H]1CC[C@H]([C@H](O)CCCCCCCCCCCCC2=C[C@H](C)OC2=O)O1            GI50  > 100 µM
2  CCCCCCCCCCCC[C@@H](O)[C@H]1CC[C@H]([C@H](O)CCCCCCCCCCCCc2cnn(C)c2)O1            GI50  > 100 µM
3  CCCCCCCCCCCC[C@@H](O)[C@H]1CC[C@H]([C@H](O)CCCCCCCCCCCCc2cncnc2)O1            GI50     61 µM
4  CCCCCCCCCCCC[C@@H](O)[C@H]1CC[C@H]([C@H](O)CCCCCCCCCCCCc2ccnn2C)O1            GI50  > 100 µM
5  CCCCCCCCCCCC[C@@H](O)[C@H]1CC[C@H]([C@H](O)CCCCCCCCCCCCc2cnc(N)nc2)O1            GI50  > 100 µM
6  CCCCCCCCCCCC[C@@H](O)[C@H]1CC[C@H]([C@H](O)CCCCCCCCCCCCc2ncccn2)O1            GI50  > 100 µM

---

- assay.explanation: Antiproliferative activity against human HBC5 cells by sulforhodamine B assay relative to control
- Type: functional
As shown below, each of these molecules has a reported GI50 value.
assay.endpoint: GI50

> print(dat)
                                 cpd.smiles    result
1  CCCCCCCCCCCC[C@@H](O)[C@H]1CC[C@H]([C@H](O)CCCCCCCCCCCCc2cnc(N)nc2)O1  > 100 µM
2  CCCCCCCCCCCC[C@@H](O)[C@H]1CC[C@H]([C@H](O)CCCCCCCCCCCCc2cnn(C)c2)O1  > 100 µM
3  CCCCCCCCCCCC[C@@H](O)[C@H]1CC[C@H]([C@H](O)CCCCCCCCCCCCC2=C[C@H](C)OC2=O)O1  > 100 µM

---

- System: HCC 2998
- assay.explanation: Antiproliferative activity against human HCC2998 cells by sulforhodamine B assay relative to control
- Format: functional
As shown below, each of these compounds has a reported GI50 value.
assay.endpoint: GI50

> print(dat)
                                   compound    result
1  CCCCCCCCCCCC[C@@H](O)[C@H]1CC[C@H]([C@H](O)CCCCCCCCCCCCc2ncccn2)O1  > 100 µM
2  CCCCCCCCCCCC[C@@H](O)[C@H]1CC[C@H]([C@H](O)CCCCCCCCCCCCC2=C[C@H](C)OC2=O)O1 [REL-SOLAMIN]  > 100 µM
3  CCCCCCCCCCCC[C@@H](O)[C@H]1CC[C@H]([C@H](O)CCCCCCCCCCCCc2cnn(C)c2)O1  > 100 µM

---

As shown below, each of these molecules has a reported GI50 value.
- System: HCT-116
- assay.explanation: Antiproliferative activity against human HCT116 cells by sulforhodamine B assay relative to control
- Format: functional
assay.endpoint: GI50

> print(dat)
                                   molecule    result
1  CCCCCCCCCCCC[C@@H](O)[C@H]1CC[C@H]([C@H](O)CCCCCCCCCCCCc2ncccn2)O1  > 100 µM
2  CCCCCCCCCCCC[C@@H](O)[C@H]1CC[C@H]([C@H](O)CCCCCCCCCCCCC2=C[C@H](C)OC2=O)O1 [REL-SOLAMIN]  > 100 µM
3  CCCCCCCCCCCC[C@@H](O)[C@H]1CC[C@H]([C@H](O)CCCCCCCCCCCCc2cnc(N)nc2)O1  > 100 µM

---

As shown below, each of these compounds has a reported GI50 value.
- assay.explanation: Antiproliferative activity against human OVACR4 cells by sulforhodamine B assay relative to control
- Format: functional
assay.endpoint: GI50

> print(dat)
                                   compound  assay.endpoint    result
1  CCCCCCCCCCCC[C@@H](O)[C@H]1CC[C@H]([C@H](O)CCCCCCCCCCCCC2=C[C@H](C)OC2=O)O1 [REL-SOLAMIN]            GI50  > 100 µM
2  CCCCCCCCCCCC[C@@H](O)[C@H]1CC[C@H]([C@H](O)CCCCCCCCCCCCc2cnc(N)nc2)O1            GI50  > 100 µM
3  CCCCCCCCCCCC[C@@H](O)[C@H]1CC[C@H]([C@H](O)CCCCCCCCCCCCc2cnn(C)c2)O1            GI50  > 100 µM
